Test system: NCI-H3122
Test: relative viability (nuclei count vs DMSO), 5 days (fraction); higher = more cells survive
Settings: first compound 0.8 µM
Listed here are compounds together with their documented relative viability.
Enter a number only.

Problem: I would be grateful if you could share the reported relative viability for O=c1[nH]c2ccccc2n1C1CCN(CCCC(c2ccc(F)cc2)c2ccc(F)cc2)CC1 [Pimozide] + Cc1nc(NC(=O)N2CCC[C@H]2C(N)=O)sc1-c1ccnc(C(C)(C)C(F)(F)F)c1 [Alpelisib] (partner 2 µM) .
Result: 0.784

Problem: Also check O=c1[nH]c2ccccc2n1C1CCN(CCCC(c2ccc(F)cc2)c2ccc(F)cc2)CC1 [Pimozide] + COc1cc2c(Oc3ccc(NC(=O)C4(C(=O)Nc5ccc(F)cc5)CC4)cc3F)ccnc2cc1OCCCN1CCOCC1 [Foretinib] (partner 0.25 µM)
Result: 0.91

Problem: Try this compound too: Cc1cnc(-c2cnc(NCCNc3ccc(C#N)cn3)nc2-c2ccc(Cl)cc2Cl)[nH]1 + Nc1ncn([C@H]2C[C@H](O)[C@@H](CO)O2)c(=O)n1 [Decitabine] (partner 2 µM)
Result: 0.461

Problem: // same read-out, input: Cc1cnc(-c2cnc(NCCNc3ccc(C#N)cn3)nc2-c2ccc(Cl)cc2Cl)[nH]1 + O=C(c1cc(Cc2n[nH]c(=O)c3ccccc23)ccc1F)N1CCN(C(=O)C2CC2)CC1 [Olaparib] (partner 8 µM)
Result: 0.651

Data provenance is the supplement of paper PMC10307832.
